Data origin, for the record: PubChem BioAssay (NCI)

Tested on: LOX IMVI melanoma
assay method text: NCI-60 one-dose screen, 48 h (100 = growth as untreated, 0 = no growth, -100 = all killed)
test parameters: 10 µM
This is part of a sample that, as a whole, favours compounds with a hit. Of some 83,000 tested, about 20% had one in any assay.
readout: growth (%)

INSERT INTO assay_data (compound, experimental_system, measurement_unit, meas_value) VALUES
  ('CCCCCCCCCCCCCCCC[N+]1(C)CCCC1c1cccnc1 (stereo unspecified)', 'LOX IMVI melanoma', '%', 49.2),
  ('O=C(c1ccccc1)C(Br)[N+](=O)[O-] (stereo unspecified)', 'LOX IMVI melanoma', '%', 80.5),
  ('O=C1C=CC(=O)N1c1cc(Cl)c(Cl)cc1Cl', 'LOX IMVI melanoma', '%', 97.9),
  ('S=C(SSC(=S)N1CCOCC1)N1CCOCC1', 'LOX IMVI melanoma', '%', 78.9),
  ('Oc1ccccc1N=Cc1ccccc1', 'LOX IMVI melanoma', '%', 54.7),
  ('Clc1ccc(Cc2nc3ccccc3s2)cc1', 'LOX IMVI melanoma', '%', 74.3),
  ('CN(C)c1ccc(C(=C2C=CC(=[N+](C)C)C=C2)c2ccc(N(C)C)cc2)cc1', 'LOX IMVI melanoma', '%', -70.2),
  ('CC(C)c1ccc(C(=O)OC2CCCC2)cc1', 'LOX IMVI melanoma', '%', 95),
  ('O=C(C[P+](c1ccccc1)(c1ccccc1)c1ccccc1)c1ccccc1', 'LOX IMVI melanoma', '%', 70.6),
  ('Clc1ccc(-n2ncc3c(NCCCN4CCOCC4)ncnc32)cc1', 'LOX IMVI melanoma', '%', 88.8),
  ('O=C(c1ccccc1)N(CCCl)C(=O)N(CCCl)C(=O)c1ccccc1', 'LOX IMVI melanoma', '%', 88.2),
  ('Nc1ccc(C(=O)/C=C/c2ccccc2)cc1', 'LOX IMVI melanoma', '%', 84.9),
  ('CN(C)c1ccc(/C=C/c2nccc3ccccc23)cc1', 'LOX IMVI melanoma', '%', 87.8),
  ('CCC(=O)c1cc([N+](=O)[O-])c(Br)s1', 'LOX IMVI melanoma', '%', -41.2),
  ('O=C(/C(Cl)=N/O)c1ccc(-c2ccccc2)cc1', 'LOX IMVI melanoma', '%', -41.5),
  ('N#C/C(=N\Nc1ccc(Cl)cc1)C(=O)C1CC1', 'LOX IMVI melanoma', '%', 67.2);
